system: Plasmodium falciparum; assay: In vitro antimalarial activity against chloroquine-resistant Plasmodium falciparum; type: functional, organism-based
IC50 reference
measurementKind: IC50 (µM)

> print(dat)
                                   molecule            assaysystem  measurementkind  unittag  experimentalresult
1                     NCCc1cn(Cc2ccccc2)cn1  Plasmodium falciparum             IC50       µM                22.5
2                      CC(C)c1nc(CCN)c[nH]1  Plasmodium falciparum             IC50       µM                 4.8
3                         CC(C)n1cnc(CCN)c1  Plasmodium falciparum             IC50       µM                10.4
4  CC(C)c1nc(CC(N)C(=O)O)c[nH]1 (configuration not stated)  Plasmodium falciparum             IC50       µM                 6.5
5  CC(C)c1nc(CC(N)C(=O)O)cn1Cc1ccccc1 (configuration not stated)  Plasmodium falciparum             IC50       µM                 245
6                   CC(C)(C)c1nc(CCN)c[nH]1  Plasmodium falciparum             IC50       µM                30.3
7  CC(C)(C)c1nc(CC(N)C(=O)O)c[nH]1 (configuration not stated)  Plasmodium falciparum             IC50       µM                3.85
